- experimental-protocol: Cytotoxicity against human breast cancer cells
- Type: functional
- assay-conditions: Cancer cell lines, read-out: ED50 (the source's name)
pEC50: −log10 of the molar value.
parameter: pEC50

In [3]: df
Out[3]:
                                        mol  readout_value
0  COC(=O)[C@H]1[C@@H](O)[C@@]2(O)c3c(OC)cc(O[C@@H]4O[C@@H]([C@H](O)CO)CO[C@H]4OC)cc3O[C@@]2(c2ccc(OC)cc2)[C@@H]1c1ccccc1           8.82
1  COC(=O)[C@H]1[C@@H](O)[C@@]2(O)c3c(OC)cc(O[C@@H]4O[C@@H]([C@H](O)CO)CO[C@@H]4OC)cc3O[C@@]2(c2ccc(OC)cc2)[C@@H]1c1ccccc1           8.82

====

- experimental-protocol: Cytotoxicity against human colon cancer cells
- Assay type: functional, cell-based
- assay-conditions: Cancer cell lines
parameter: IC50 (nM)

In [3]: df
Out[3]:
                                        mol  readout_value
0  COC(=O)[C@H]1[C@@H](O)[C@@]2(O)c3c(OC)cc(O[C@@H]4O[C@@H]([C@@H](O)CO)CO[C@H]4OC)cc3O[C@@]2(c2ccccc2)[C@@H]1c1ccccc1             10
